# ASSAYED TARGET: LHRH receptor (LHRH binding sites) on EFO-27 human ovarian cancer cells (human)
# PROTOCOL DETAILS: competition with [125I-Tyr8]BRU-2477, EFO-27 cells
VALUE KIND: EC50 (nM)

Known EC50 results, listed for orientation:
[
  {
    "BINDER": "HWSHXWXPX (N-terminal DO3A10CM on His (AA1 absent); Darg at AA6; Bpa4 at AA8; azaGly-NH2 at AA10) [BRU-2811]",
    "DATA VALUE": 360
  },
  {
    "BINDER": "XRWSHXWXPX (N-terminal DO3A10CM; Dnal2 at 1; Darg at 6; Nal2 at 8; azaGly-NH2 at 10) [BRU-3027]",
    "DATA VALUE": 370
  },
  {
    "BINDER": "XRWSHXWXP (N-terminal DO3A10CM; Dnal2 at 1; Darg at 6; Bpa4 at 8; C-terminal Gua (guanidine) at 10) [BRU-2984]",
    "DATA VALUE": 400
  }
]

1 = XHWSHXWXPX (N-terminal DO3A10CM; Dnal1 at 1; Darg at 6; Bpa4 at 8; azaGly-NH2 at 10) [BRU-2869]
2 = XRXSHXWXPX (N-terminal DO3A10CM; Dnal2 at 1; Nal1 at 3; Darg at 6; Bpa4 at 8; azaGly-NH2 at 10) [BRU-3104]
Identify the item whose EC50 is the smaller number: 1 or 2 Selection: enter the item's label.
2
(2: 250 nM, 1: 360 nM)

Where these numbers come from: patent US20120045393A1
